This collection of values is drawn from patent US20210347873A1.

# Tested System: mouse BLyS protein (mouse, UniProt Q9WU72 69-309)
# Sequence (Q9WU72 69-309): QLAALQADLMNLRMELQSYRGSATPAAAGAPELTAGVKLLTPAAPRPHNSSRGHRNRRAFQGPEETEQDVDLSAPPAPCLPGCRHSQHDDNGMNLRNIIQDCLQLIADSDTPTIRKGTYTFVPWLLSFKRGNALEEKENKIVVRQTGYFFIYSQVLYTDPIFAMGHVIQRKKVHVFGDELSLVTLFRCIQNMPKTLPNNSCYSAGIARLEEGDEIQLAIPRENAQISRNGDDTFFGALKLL
# Experimental Details: cell-based or functional assay
Overview of reported mouse B lymphocyte proliferation (OD450 nm), antibody 4 nM across a group of binders:
Test Readout: mouse B lymphocyte proliferation (OD450 nm), antibody 4 nM

Binder	Unit Name	Reading
93C6F10D3 (antibody, V domains shown, Mouse hybridoma monoclonal antibody purified on Protein G) VH: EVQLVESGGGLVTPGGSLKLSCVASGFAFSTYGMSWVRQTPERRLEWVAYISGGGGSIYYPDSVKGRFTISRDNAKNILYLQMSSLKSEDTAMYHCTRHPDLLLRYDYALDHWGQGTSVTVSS VL: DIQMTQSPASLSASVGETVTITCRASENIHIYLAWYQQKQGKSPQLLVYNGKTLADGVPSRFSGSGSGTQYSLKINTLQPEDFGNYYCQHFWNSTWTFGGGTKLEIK	OD450 nm	2640
L1D12 (antibody, V domains shown, From a human naive scFv phage library; also called human BLyS antibody L1D12; LID12) VH: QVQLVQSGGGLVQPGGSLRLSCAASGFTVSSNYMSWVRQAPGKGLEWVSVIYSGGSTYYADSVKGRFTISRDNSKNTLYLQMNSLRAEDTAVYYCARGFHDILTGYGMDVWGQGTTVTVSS VL: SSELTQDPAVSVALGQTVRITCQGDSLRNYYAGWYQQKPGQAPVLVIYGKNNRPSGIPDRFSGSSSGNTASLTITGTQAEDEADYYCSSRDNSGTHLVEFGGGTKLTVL	OD450 nm	2560
L9G7 (antibody, V domains shown, From a human naive scFv phage library; also called human BLyS antibody L9G7) VH: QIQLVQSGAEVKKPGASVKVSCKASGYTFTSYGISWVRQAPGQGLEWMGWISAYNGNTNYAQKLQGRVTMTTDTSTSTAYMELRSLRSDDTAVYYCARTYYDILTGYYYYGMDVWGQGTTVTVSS VL: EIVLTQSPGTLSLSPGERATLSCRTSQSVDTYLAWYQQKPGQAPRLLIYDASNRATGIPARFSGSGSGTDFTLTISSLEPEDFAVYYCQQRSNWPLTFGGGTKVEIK	OD450 nm	308
